Hello, the source for this data is patent US20140377284A1, in case you need it.

Molecular target: T1, human CD134 (full-length, on cells) (human, UniProt P43489 29-277)
T1 construct: also called OX40; TNFRSF4
T1 sequence: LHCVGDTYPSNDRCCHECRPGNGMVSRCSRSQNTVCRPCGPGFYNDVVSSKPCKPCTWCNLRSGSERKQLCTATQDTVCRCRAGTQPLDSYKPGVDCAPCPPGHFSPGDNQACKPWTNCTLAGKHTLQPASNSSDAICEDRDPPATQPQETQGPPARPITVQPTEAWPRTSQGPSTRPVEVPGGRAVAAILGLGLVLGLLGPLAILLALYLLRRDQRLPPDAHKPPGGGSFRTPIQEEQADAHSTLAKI
Assay: competition flow cytometry, stable CD134 293-F clone no. 5; competitor biotinylated mouse 12H3 at 700 ng/mL
Quick reference for IC50 among some binders

Completed entries (count: 5):
Binder	IC50
humanized IgG4κ anti-human CD134 antibody clone 12H3 version 12H3_VL1VH1 (antibody, V domains shown, Stabilized human IgG4 (Angal et al.)/κ; also called 12H3_VL1H1) VH: QVQLVQSGAEVKKPGSSVKVSCKASGYTFKDYTMHWVRQAPGQGLEWMGGIYPNNGGSTYNQNFKDRVTITADKSTSTAYMELSSLRSEDTAVYYCARMGYHGPHLDFDVWGQGTTVTVSS VL: DIQMTQSPSSLSASVGDRVTITCKASQDVGAAVAWYQQKPGKAPKLLIYWASTRHTGVPSRFSGSGSGTDFTLTISSLQPEDFATYYCQQYINYPLTFGGGTKVEIKR	~1.5 µg/mL
mouse anti-human CD134 monoclonal antibody clone 12H3 (antibody, V domains shown, also called m12H3; parental mouse anti-human CD134 antibody clone 12H3) VH: EVQLQQSGPELVKPGASVKISCKTSGYTFKDYTMHWVKQSHGKSLEWIGGIYPNNGGSTYNQNFKDKATLTVDKSSSTAYMEFRSLTSEDSAVYYCARMGYHGPHLDFDVWGAGTTVTVSP VL: DIVMTQSHKFMSTSLGDRVSITCKASQDVGAAVAWYQQKPGQSPKLLIYWASTRHTGVPDRFTGGGSGTDFTLTISNVQSEDLTDYFCQQYINYPLTFGGGTKLEIKR	~3.5 µg/mL
chimeric human IgG4κ anti-human CD134 antibody clone 12H3 (antibody, V domains shown, Murine V-regions linked to human IgG4 and human kappa constant regions; also called chimeric 12H3 (human IgG4/κ)) VH: EVQLQQSGPELVKPGASVKISCKTSGYTFKDYTMHWVKQSHGKSLEWIGGIYPNNGGSTYNQNFKDKATLTVDKSSSTAYMEFRSLTSEDSAVYYCARMGYHGPHLDFDVWGAGTTVTVSP VL: DIVMTQSHKFMSTSLGDRVSITCKASQDVGAAVAWYQQKPGQSPKLLIYWASTRHTGVPDRFTGGGSGTDFTLTISNVQSEDLTDYFCQQYINYPLTFGGGTKLEIKR	~3.5 µg/mL
humanized IgG4κ anti-human CD134 antibody clone 12H3 version 12H3_VL1VH3 (antibody, V domains shown, Stabilized human IgG4/κ; end of each range computed; also called 12H3_VL1H3) VH: QVQLVQSGAEVKKPGSSVKVSCKASGYTFKDYTMHWVRQAPGQGLEWIGGIYPNNGGSTYNQNFKDRATLTVDKSTSTAYMELSSLRSEDTAVYYCARMGYHGPHLDFDVWGQGTTVTVSS VL: DIQMTQSPSSLSASVGDRVTITCKASQDVGAAVAWYQQKPGKAPKLLIYWASTRHTGVPSRFSGSGSGTDFTLTISSLQPEDFATYYCQQYINYPLTFGGGTKVEIKR	~1.5 µg/mL
humanized IgG4κ anti-human CD134 antibody clone 12H3 version 12H3_VL2VH3 (antibody, V domains shown, Stabilized human IgG4/κ; end of each range computed) VH: QVQLVQSGAEVKKPGSSVKVSCKASGYTFKDYTMHWVRQAPGQGLEWIGGIYPNNGGSTYNQNFKDRATLTVDKSTSTAYMELSSLRSEDTAVYYCARMGYHGPHLDFDVWGQGTTVTVSS VL: DIQMTQSPSSLSASVGDRVTITCKASQDVGAAVAWYQQKPGKAPKLLIYWASTRHTGVPDRFSGGGSGTDFTLTISSLQPEDFATYYCQQYINYPLTFGGGTKVEIKR	~1.5 µg/mL

Field: next binder
-- ask May I ask what IC50 has been recorded for humanized IgG4κ anti-human CD134 antibody clone 12H3 version 12H3_VL1VH2 (antibody, V domains shown, Stabilized human IgG4/κ; end of each range computed; also called 12H3_VL1H2; 2H3 VL1VH2 (SF2)) VH: QVQLVQSGAEVKKPGSSVKVSCKASGYTFKDYTMHWVRQAPGQGLEWIGGIYPNNGGSTYNQNFKDRVTLTADKSTSTAYMELSSLRSEDTAVYYCARMGYHGPHLDFDVWGQGTTVTVSS VL: DIQMTQSPSSLSASVGDRVTITCKASQDVGAAVAWYQQKPGKAPKLLIYWASTRHTGVPSRFSGSGSGTDFTLTISSLQPEDFATYYCQQYINYPLTFGGGTKVEIKR ?
-- reply ~1.5 µg/mL
